Tested on: Escherichia coli
Method summary: Antimicrobial activity against Escherichia coli 25922 assessed as absence bacterial growth measured after 18 to 24 hrs incubation in presence of KCl by NCCLS method
Format: functional
Particulars: time 18-24 hrs
Recorded endpoint: MIC

H-FKLWLKGGKLWLKGGKLWLKG-NH2    8 µM
H-GKLWLKGCKLWLKGGKLWLKG-NH2    8 µM
H-GKLWLKGIKLWLKGGKLWLKG-NH2    2 µM
H-GKLWLKGWKLWLKGGKLWLKG-NH2    1 µM
H-IKLWLKGGKLWLKGGKLWLKG-NH2    4 µM
H-MKLWLKGGKLWLKGGKLWLKG-NH2    4 µM

Kindly indicate its recorded MIC. Item: H-AKLWLKGGKLWLKGGKLWLKG-NH2
4 µM

###

# maps each entry to its log10 MBC
Method summary: Antimicrobial activity against Salmonella pullorum C7913 assessed as bacterial killing measured after 16 hrs incubation
Type: functional, Salmonella enterica subsp. enterica serovar Pullorum
Particulars: Salmonella enterica
Values below are the log10 of the recorded MBC, with µM as the unit.

Give the measured log10 MBC for H-WKLWLKGGKLWLKGGKLWLKG-NH2
0.30

Give the measured log10 MBC for H-GKLWLKGGKLWLKGGKLWLKG-NH2
0.30

Complete the entry with log10 MBC for H-GKLWLKGVKLWLKGGKLWLKG-NH2
-0.30

Give me measured log10 MBC, please, for this substance: H-GKLWLKAGKLWLKGGKLWLKG-NH2
0.00

Tell me measured log10 MBC for H-GKLWLKGGKLWLKAGKLWLKG-NH2 please.
0.30

Annotate the substance H-GKLWLKGGKLWLKGGKLWLKA-NH2 with its measured log10 MBC.
0.60

Consider the substance H-LKLWLKGGKLWLKGGKLWLKG-NH2 and give its recorded log10 MBC.
0.30

###

System: Staphylococcus aureus
Method summary: Antimicrobial activity against Staphylococcus aureus 29213 assessed as absence bacterial growth measured after 18 to 24 hrs incubation by NCCLS m
Format: functional
Particulars: time 18-24 hrs
Recorded endpoint: MIC (µM)
# number only, unit µM dropped from output

H-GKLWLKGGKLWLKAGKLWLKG-NH2    4
H-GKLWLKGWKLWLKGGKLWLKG-NH2    4

Report value: MIC, system: Staphylococcus aureus, substance: H-GKLWLKGAKLWLKGGKLWLKG-NH2
8

Identify measured MIC obtained with Staphylococcus aureus for H-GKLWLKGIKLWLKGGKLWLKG-NH2 .
4

###

System: Staphylococcus aureus
Method summary: Antimicrobial activity against Staphylococcus aureus 29213 assessed as bacterial killing measured after 16 hrs incubation
Assay type: functional
Some substances, each annotated with its measured MBC.

H-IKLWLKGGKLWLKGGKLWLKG-NH2    > 32 µM
H-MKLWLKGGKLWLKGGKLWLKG-NH2    > 32 µM

Please supply the value of reported MBC for the item H-GKLWLKGLKLWLKGGKLWLKG-NH2
4 µM

Give reported MBC value for H-GKLWLKGFKLWLKGGKLWLKG-NH2
4 µM

Note down MBC recorded for H-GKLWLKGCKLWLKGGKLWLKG-NH2
> 32 µM

Supply reported MBC belonging to this substance: H-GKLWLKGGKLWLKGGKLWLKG-NH2
> 32 µM

Indicate its recorded MBC; the substance in question is H-VKLWLKGGKLWLKGGKLWLKG-NH2
> 32 µM

Provide MBC value for the following substance: H-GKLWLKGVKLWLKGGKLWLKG-NH2
4 µM

Recall and state the measured MBC for H-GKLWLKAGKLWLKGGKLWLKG-NH2 .
8 µM

Give MBC for H-CKLWLKGGKLWLKGGKLWLKG-NH2
> 32 µM

Quote MBC reported for H-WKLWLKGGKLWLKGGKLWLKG-NH2 please.
8 µM

Return the recorded MBC value; entry: H-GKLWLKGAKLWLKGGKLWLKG-NH2
8 µM

Identify measured MBC associated with H-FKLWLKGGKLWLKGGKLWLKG-NH2
32 µM

Provide only the value of recorded MBC for H-GKLWLKGGKLWLKGAKLWLKG-NH2
4 µM
